test: qHTS of pediatric cancer cell lines to identify multiple opportunities for drug repurposing: Confirmatory screen for Rh30 cells (AID 1347126); settings: Rh30 rhabdomyosarcoma cell viability; series mostly up to 45.9 µM; also: nearly all actives have a fitted effect of over 55% in size
Records with an inconclusive call do not appear. Active and inactive are the calls of the source. Calls follow the shape of the dose curve; as a rule, active = well fitted cell-killing curve with a large enough effect; inconclusive = small, poorly fitted or top-dose-only effect, or effect the other way; inactive = no such curve, though single readings can be large or run the other way.
Respond only with the outcome that fits, drawn from class 1 (active), class 0 (inactive)

Q. Any idea what this test logged for `Nc1cc(C(F)(F)F)c(-c2cc(N3CCOCC3)nc(N3CCOCC3)n2)cn1` ?
A. class 1

Q. Any idea what this test logged for `O=C(C=Cc1cccnc1)NCCCCC1CCN(C(=O)c2ccccc2)CC1` ?
A. class 0

Q. Any idea what this test logged for `Nc1ccccc1NC(=O)c1ccc(CNc2nccc(-c3cccnc3)n2)cc1` ?
A. class 1

Q. Any idea what this test logged for `CCN1CCN(Cc2ccc(-c3cc4c(N[C@H](C)c5ccccc5)ncnc4[nH]3)cc2)CC1` ?
A. class 1

Q. Any idea what this test logged for `Cc1nc(Nc2n[nH]c3c2CN(C(=O)N[C@H](CN(C)C)c2ccccc2)C3(C)C)c2sccc2n1` ?
A. class 0

---

assay: Quantitative High-Throughput drug screen in 47 multiple myeloma cell lines against the NCATS MIPE library collection: JJN3_DSMZ cell viability assay (AID 1918966; also: nearly all actives have a fitted effect of over 50% in size); conditions: JJN3 myeloma cells viability, CellTiter-Glo ATP, 48 h; series mostly up to 45.8 µM
Records with an inconclusive call do not appear. The source made the active and inactive calls. The call rests on the fitted dose curve; in most records, active means well fitted cell-killing curve with a large enough effect; inconclusive means small, poorly fitted or top-dose-only effect, or effect the other way; inactive means no such curve, though single readings can be large or run the other way.
Respond only with the outcome that fits, drawn from active, inactive

Q. Any idea what this test logged for Cn1c2cc(S(C)=O)sc2c2cnn(Cc3cccc(N)c3)c(=O)c21 (configuration not stated) ?
A. inactive

Q. Any idea what this test logged for `CNc1nccc(-c2cccnc2Oc2cc(C(=O)Nc3cccc(C(F)(F)F)c3)ccc2C)n1` ?
A. active

Q. Any idea what this test logged for `CNC(=O)c1c(F)cccc1Nc1nc(Nc2cc3c(cc2OC)CCN3C(=O)CN(C)C)nc2[nH]ccc12` ?
A. active

Q. Any idea what this test logged for `C#Cc1cccc(Nc2ncnc3cc(OC)c(OCCCCCCC(=O)NO)cc23)c1` ?
A. active

Q. Any idea what this test logged for `CN(C)CC=CC(=O)Nc1cc2c(Nc3ccc(F)c(Cl)c3)ncnc2cc1O[C@H]1CCOC1` ?
A. active

Q. Any idea what this test logged for `COC(=O)Nc1nc2ccc(C(=O)c3ccc(F)cc3)cc2[nH]1` ?
A. active

Q. Any idea what this test logged for `Cc1[nH]nc2ccc(-c3cncc(OC[C@@H](N)Cc4ccccc4)c3)cc12` ?
A. active

Q. Any idea what this test logged for `O=c1[nH]nc(Sc2ncc([N+](=O)[O-])s2)n1-c1ccc2c(c1)OCCO2` ?
A. active

Q. Any idea what this test logged for `CC(C)CC(=O)Nc1n[nH]c2c1CN(C(=O)C1CCN(C)CC1)C2(C)C` ?
A. active

Q. Any idea what this test logged for COc1cc(C)c(Sc2cnc(NC(=O)c3ccc(CNC(C)C(C)C)cc3)s2)cc1C(=O)N1CCN(C(C)=O)CC1 (configuration not stated) ?
A. active

Q. Any idea what this test logged for `O=C(O)CO.[NH2-].[NH2-].[Pt+2]` ?
A. inactive

Q. Any idea what this test logged for `CCN(CC)CCCCNc1ncc2cc(-c3cc(OC)cc(OC)c3)c(NC(=O)NC(C)(C)C)nc2n1` ?
A. active

Q. Any idea what this test logged for `CS(=O)(=O)c1ccc(-c2cnc(N)c(C(=O)Nc3ccccc3)n2)cc1` ?
A. inactive

Q. Any idea what this test logged for CC1(C)CC(=O)c2c(C(F)(F)F)nn(-c3ccc(C(N)=O)c(NC4CCC(OC(=O)CN)CC4)c3)c2C1 (configuration not stated) ?
A. active

Q. Any idea what this test logged for `CNC(=O)c1nn(C)c2c1C(C)(C)Cc1cnc(Nc3ccc(N4CCN(C)CC4)cc3)nc1-2` ?
A. active

Q. Any idea what this test logged for `CN(C)CCCN=c1c2ccccc2n(C)c2[nH]c(=O)n(C)c(=O)c12` ?
A. active

Q. Any idea what this test logged for `COc1cc2c(Nc3ccc(NC(=O)c4ccccc4)cc3)ncnc2cc1OCCCN1CCOCC1` ?
A. active

Q. Any idea what this test logged for `CCOc1cc2ncc(C#N)c(Nc3ccc(F)c(Cl)c3)c2cc1NC(=O)C=CCN(C)C` ?
A. active

Q. Any idea what this test logged for `O=C(Nc1ncc(-c2cc(C(F)F)nn2-c2c(Cl)cccc2Cl)s1)C1CC1` ?
A. active

Q. Any idea what this test logged for COc1ccc(C(=O)CC2(O)C(=O)Nc3c(Cl)ccc(Cl)c32)cc1 (configuration not stated) ?
A. active

Q. Any idea what this test logged for `CC(=O)Nc1sc2c(c1-c1nc3ccccc3s1)CNC2` ?
A. active

Q. Any idea what this test logged for `CCC[C@H](NC(=O)C(C#N)=Cc1cccc(Br)n1)c1ccccc1` ?
A. active

Q. Any idea what this test logged for `COc1cc2c(Oc3ccc(-c4cnc(Nc5ccc(F)cc5)n(C)c4=O)cc3F)ccnc2cc1OCCCN1CCOCC1` ?
A. active

Q. Any idea what this test logged for `CC[C@H]1CN2CCc3cc(OC)c(OC)cc3[C@H]2C[C@@H]1C[C@@H]1NCCc2cc(OC)c(OC)cc21` ?
A. active

Q. Any idea what this test logged for `COC(=O)c1ccc2c(C(=Nc3ccc(N(C)C(=O)CN4CCN(C)CC4)cc3)c3ccccc3)c(O)[nH]c2c1` ?
A. active

Q. Any idea what this test logged for `CC(C)c1cnn2c(NCc3ccccc3)cc(N[C@@H](CO)[C@H](O)CO)nc12` ?
A. active

Q. Any idea what this test logged for `Fc1cc(-c2cccc3ncc(-c4cnn(C5CCNCC5)c4)nc23)cc(F)c1CN1CCOCC1` ?
A. active

Q. Any idea what this test logged for `COc1cc(C(C)C)c2c(c1)S(=O)(=O)N(COc1cc(=O)n3cccc(OCCN4CCCCC4)c3n1)C2=O` ?
A. active

Q. Any idea what this test logged for `Cc1ccc(S(=O)(=O)Nc2cc(Cl)ccc2C(=O)Nc2nc(-c3ccccc3)cs2)cc1` ?
A. active

Q. Any idea what this test logged for `O=C(Nc1cn[nH]c1-c1nc2ccc(CN3CCOCC3)cc2[nH]1)NC1CC1` ?
A. active

Q. Any idea what this test logged for `CC[C@H](CO)Nc1nc(NCc2ccccc2)c2ncn(C(C)C)c2n1` ?
A. active

Q. Any idea what this test logged for C=C1C(=CC=C2CCCC3(C)[C@@H]([C@H](C)C=CC=CC(O)(CC)CC)CC[C@@H]23)C[C@@H](O)C[C@@H]1O (some centres not stated) ?
A. active

Q. Any idea what this test logged for `C=CC(=O)Nc1cc2c(Nc3ccc(F)c(Cl)c3)ncnc2cc1C#CC(C)(C)N1CCN(C)CC1` ?
A. active

Q. Any idea what this test logged for `CCn1nnc2c(N3CCOCC3)nc(-c3ccc(NC(=O)Nc4ccc(C(=O)N5CCN(C)CC5)cc4)cc3)nc21` ?
A. active

Q. Any idea what this test logged for `Cc1cc(N2CCOCC2)cc2[nH]c(-c3c(NC[C@@H](O)c4cccc(Cl)c4)cc[nH]c3=O)nc12` ?
A. active

Q. Any idea what this test logged for `CCCCOc1c(C(=O)c2c(F)cc(C)cc2F)cnc2n[nH]cc12` ?
A. active

Q. Any idea what this test logged for `C[C@@H](Oc1cc(-c2cnn(C3CCNCC3)c2)cnc1N)c1c(Cl)ccc(F)c1Cl` ?
A. active
